Hey, just so you know, these numbers are from patent US12371428B2.

Each entry below lists one item and its recorded pIC50 value.
# study-target: KDR (phospho-KDR, VEGF165-stimulated HUVEC cells) (Homo sapiens (Human))
# assay-summary: KDR autophosphorylation ELISA in HUVEC cells (Example G)
# Assay type: cell-based
# test-context: cellular activity; KDR autophosphorylation ELISA in HUVEC cells
pIC50: −log10 of the molar value.

                            smiles_notation  value_observed
0  COc1cc2nccc(Oc3ccc(NC(=O)c4c(C)n(C)nc(-c5ccc(F)cc5C)c4=O)cc3F)c2nc1OC    6.52 to 7.00

// pIC50 value for `CCn1cc(C(=O)Nc2ccc(Oc3ccnc4cc(OC)c(OC)nc34)cc2)c(=O)c(-c2ccc(F)cc2)c1` : > 7.00

Measured pIC50, `COc1cc2nccc(Oc3ccc(NC(=O)c4cn(C(F)F)c(C)c(-c5ccc(F)cc5)c4=O)cc3F)c2nc1OC` : > 7.00

Consider `COc1cc2nccc(Oc3ccc(NC(=O)c4cn(C(C)(C)CO)cc(-c5ccc(F)cc5)c4=O)cc3F)c2nc1OC` . Its measured pIC50 is < 6.52

The recorded pIC50 for `C=C(C)c1cc(C(=O)Nc2ccc(Oc3ccnc4cc(OC)c(OC)nc34)c(F)c2)c(=O)n(-c2ccc(F)cc2)c1C` is 6.52 to 7.00

Quick note, pIC50 for `COc1cc2nccc(Oc3ccc(NC(=O)c4cnc(C)n(-c5ccc(F)cc5)c4=O)cc3)c2nc1OC` landed at < 6.52

Entry `C=Cc1cc2nccc(Oc3ccc(NC(=O)c4cnc(C)c(-c5ccc(F)cc5C)c4O)cc3F)c2nc1OC` ; pIC50 = > 7.00

Measured pIC50, `COc1ccc2nccc(Oc3ccc(NC(=O)c4c(C)nc(C)n(-c5ccc(F)cc5)c4=O)cc3F)c2n1` : > 7.00

The value of pIC50 measured for the compound `COc1cc2nccc(Oc3ccc(NC(=O)c4cn(C)c(CF)c(-c5ccc(F)cc5C)c4=O)cc3F)c2nc1OC` turned out to be > 7.00

Data point: `COc1ccc2nccc(Oc3ccc(NC(=O)c4ccc(C)n(-c5ccc(F)cc5)c4=O)cc3F)c2c1` ; pIC50 = > 7.00

Value of measured pIC50 for the entry `COCc1nc(C)c(-c2ccc(F)cc2C)c(O)c1C(=O)Nc1ccc(Oc2ccnc3cc(OC)c(OC)nc23)c(F)c1` : > 7.00

The value of pIC50 measured for the compound `COc1cc2nccc(Oc3ccc(NC(=O)c4c(OC)c(C)cn(-c5ccc(F)cc5)c4=O)cc3F)c2nc1OC` turned out to be > 7.00

The measured pIC50 associated with `Cc1cc(F)ccc1-c1c(C)ncc(C(=O)Nc2ccc(Oc3ccnc4cc(C(C)C)cnc34)c(F)c2)c1O` reads > 7.00

---

# study-target: KDR (phospho-KDR, VEGF165-stimulated HUVEC cells) (Homo sapiens (Human), UniProt P35968)
# Sequence (P35968 20-1356): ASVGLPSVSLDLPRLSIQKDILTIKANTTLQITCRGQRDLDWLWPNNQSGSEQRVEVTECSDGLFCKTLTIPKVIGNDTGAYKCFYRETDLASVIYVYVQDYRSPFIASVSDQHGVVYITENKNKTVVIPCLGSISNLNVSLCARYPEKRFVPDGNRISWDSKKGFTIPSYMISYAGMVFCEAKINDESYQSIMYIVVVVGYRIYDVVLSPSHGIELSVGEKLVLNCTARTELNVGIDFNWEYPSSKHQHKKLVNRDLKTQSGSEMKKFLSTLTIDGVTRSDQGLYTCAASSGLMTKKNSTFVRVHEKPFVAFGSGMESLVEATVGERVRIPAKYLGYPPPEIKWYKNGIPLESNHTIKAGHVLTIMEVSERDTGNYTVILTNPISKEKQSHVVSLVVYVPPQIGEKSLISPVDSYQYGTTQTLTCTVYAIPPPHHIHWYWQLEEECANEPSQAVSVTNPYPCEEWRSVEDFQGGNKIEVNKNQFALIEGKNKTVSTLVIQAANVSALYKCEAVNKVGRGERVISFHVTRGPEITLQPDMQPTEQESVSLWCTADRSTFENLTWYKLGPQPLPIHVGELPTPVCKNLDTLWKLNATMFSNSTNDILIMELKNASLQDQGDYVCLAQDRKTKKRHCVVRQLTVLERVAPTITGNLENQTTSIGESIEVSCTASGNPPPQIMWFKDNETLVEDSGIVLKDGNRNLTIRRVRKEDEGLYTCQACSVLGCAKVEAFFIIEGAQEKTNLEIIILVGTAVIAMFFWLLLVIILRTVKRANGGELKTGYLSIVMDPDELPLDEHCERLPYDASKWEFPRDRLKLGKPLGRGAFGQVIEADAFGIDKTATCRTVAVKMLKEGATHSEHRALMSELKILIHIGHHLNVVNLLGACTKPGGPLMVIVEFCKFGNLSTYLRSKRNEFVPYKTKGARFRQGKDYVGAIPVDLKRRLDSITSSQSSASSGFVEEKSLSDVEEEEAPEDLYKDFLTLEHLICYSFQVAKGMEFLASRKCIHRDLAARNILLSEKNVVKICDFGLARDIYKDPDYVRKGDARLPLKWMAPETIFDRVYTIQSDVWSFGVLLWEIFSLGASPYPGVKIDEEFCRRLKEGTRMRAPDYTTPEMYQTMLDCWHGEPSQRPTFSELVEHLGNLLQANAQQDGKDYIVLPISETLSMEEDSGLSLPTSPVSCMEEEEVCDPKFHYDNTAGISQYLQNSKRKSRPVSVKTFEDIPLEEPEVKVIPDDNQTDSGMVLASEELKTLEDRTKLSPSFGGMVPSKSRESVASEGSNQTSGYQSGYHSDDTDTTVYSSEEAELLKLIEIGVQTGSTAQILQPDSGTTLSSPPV
# assay-summary: KDR autophosphorylation ELISA in HUVEC cells (Example G)
# Format: cell-based
# test-context: cellular activity; KDR autophosphorylation ELISA in HUVEC cells
# Procedure: Human umbilical vein endothelial cells or HUVEC (Lonza #C2519A) were seeded at 2×10^4 cells/well onto 96-well plates (Corning #3904), in EGM-2 growth medium (Lonza #CC-3162) containing 1% Penicillin Streptomycin (Thermo Fisher #15140-122). […] IC50 values were calculated by nonlinear regression analysis using a 4-parameter logistic curve fit in ActivityBase XE (IDBS).
IC50 values by entry

The following compounds have reported results that may help.
>>> df
                                   compound                              study_target  value_observed
0  Cc1ccc2nccc(Oc3ccc(NC(=O)c4c(C)cc(C)n(-c5ccc(F)cc5)c4=O)cc3F)c2n1 [Compound 297]  KDR (phospho-KDR, VEGF165-stimulated HUVEC cells) (Homo sapiens (Human), UniProt P35968)        < 100 nM
1  COc1cc2nccc(Oc3ccc(NC(=O)c4nc(C)cn(-c5ccc(F)cc5)c4=O)cc3F)c2nc1OC [Compound 684]  KDR (phospho-KDR, VEGF165-stimulated HUVEC cells) (Homo sapiens (Human), UniProt P35968)        > 300 nM
2  COc1cc2nccc(Oc3ccc(NC(=O)c4c(C)nc(C)c(-c5ccc(F)cc5CO)c4O)cc3F)c2nc1OC [Compound 518]  KDR (phospho-KDR, VEGF165-stimulated HUVEC cells) (Homo sapiens (Human), UniProt P35968)        < 100 nM
3  COc1cc2nccc(Oc3ccc(NC(=O)c4cn(C)c(C)c(-c5ccc(F)cc5)c4=O)c(F)c3F)c2nc1OC [Compound 390]  KDR (phospho-KDR, VEGF165-stimulated HUVEC cells) (Homo sapiens (Human), UniProt P35968)        < 100 nM
4  COCCOc1cnc2c(Oc3ccc(NC(=O)c4ccc(C)n(-c5ccc(F)cc5)c4=O)cc3F)ccnc2c1 [Compound 552]  KDR (phospho-KDR, VEGF165-stimulated HUVEC cells) (Homo sapiens (Human), UniProt P35968)        < 100 nM

Result for CCn1cc(C(=O)Nc2ccc(Oc3ccnc4cc(OC)c(OC)nc34)c(F)c2)c(=O)c(-c2ccc(F)cc2)c1C [Compound 63] , tested on KDR (phospho-KDR, VEGF165-stimulated HUVEC cells) (Homo sapiens (Human), UniProt P35968), IC50: < 100 nM

Form field IC50 for item Cc1ncc(C(=O)Nc2ccc(Oc3ccnc4cc(C(C)C)cnc34)cc2)c(O)c1-c1ccc(F)cc1 [Compound 594] on KDR (phospho-KDR, VEGF165-stimulated HUVEC cells) (Homo sapiens (Human), UniProt P35968): < 100 nM

Given the compound COc1cc2nccc(Oc3ccc(NC(=O)c4cn(C5CC5)c(C)c(-c5ccc(F)cc5)c4=O)cc3F)c2nc1OC [Compound 433] and test system KDR (phospho-KDR, VEGF165-stimulated HUVEC cells) (Homo sapiens (Human), UniProt P35968), the measured IC50 is > 300 nM

Record CCc1nc2c(Oc3ccc(NC(=O)c4cn(C(C)C)c(C)c(-c5ccc(F)cc5)c4=O)cc3F)ccnc2cc1OC [Compound 588] has KDR (phospho-KDR, VEGF165-stimulated HUVEC cells) (Homo sapiens (Human), UniProt P35968) IC50 equal to > 300 nM

Field IC50 (system: KDR (phospho-KDR, VEGF165-stimulated HUVEC cells) (Homo sapiens (Human), UniProt P35968)) for entry COc1cc2nccc(Oc3ccc(NC(=O)c4cn(OC)cc(-c5ccc(F)cc5)c4=O)cc3F)c2nc1OC [Compound 126] = < 100 nM

---

# study-target: KDR (phospho-KDR, VEGF165-stimulated HUVEC cells) (Homo sapiens (Human))
# assay-summary: KDR autophosphorylation ELISA in HUVEC cells (Example G)
# Format: cell-based
# test-context: cellular activity; KDR autophosphorylation ELISA in HUVEC cells
experimental-endpoint: IC50

>>> print(df.to_string())
                                   compound  value_observed
0  COCCOc1ccc2nccc(Oc3ccc(NC(=O)c4cnc(C)c(-c5ccc(F)cc5)c4O)cc3F)c2n1 [Compound 348]        < 100 nM
1  COCCOc1cc2nccc(Oc3ccc(NC(=O)c4c(C)nc(C)c(-c5ccc(F)cc5C)c4O)cc3F)c2nc1OC [Compound 487]        < 100 nM
2  COc1ccc(-c2c(C)nc(C)c(C(=O)Nc3ccc(Oc4ccnc5cc(OC)cnc45)c(F)c3)c2O)c(OC)c1 [Compound 695]        < 100 nM
3  COc1cc2nccc(Oc3ccc(NC(=O)c4cn5cc(C)oc5c(-c5ccc(F)cc5)c4=O)cc3F)c2nc1OC [Compound 491]        > 300 nM

Field IC50 (entry COc1ccc2nccc(Oc3ccc(NC(=O)c4cn(C5CC5)c(C)c(-c5ccc(F)cc5)c4=O)cc3F)c2n1 [Compound 435] ) reads > 300 nM

Entry under test: COc1cc2nccc(Oc3ccc(NC(=O)c4n[nH]c(C)c(-c5ccc(F)cc5)c4=O)cc3F)c2nc1OC [Compound 88] . Its IC50 was < 100 nM

# compound COCCOc1ccc2nccc(Oc3ccc(NC(=O)c4c(C)nc(C)c(-c5ccc(F)cc5)c4O)cc3F)c2n1 [Compound 349] ; its IC50 = < 100 nM

// sample COc1nc2c(Oc3ccc(NC(=O)c4n[nH]c(C)c(-c5ccc(F)cc5C)c4=O)cc3F)ccnc2cc1C [Compound 473] , its IC50 was > 300 nM

Recorded IC50 (compound COc1cc2nccc(Oc3ccc(NC(=O)c4cn(C)c(CO)c(-c5ccc(F)cc5)c4=O)cc3)c2nc1OC [Compound 221] ): 100 to 300 nM

What the record says about COc1cnc2c(Oc3ccc(NC(=O)c4cnc(C)n(-c5ccc(F)cc5)c4=O)cc3)ccnc2c1 [Compound 266] : IC50 is > 300 nM

Lab note: measured IC50 of COc1cc2nccc(Oc3ccc(NC(=O)c4ncnc(-c5ccc(F)cc5)c4O)cc3F)c2nc1OC [Compound 96] was < 100 nM
